meta.source: patent US20250215029A1

- subject.of.test: Recombinant STAT6 protein (STAT6 (W123-T658)) (Homo sapiens, UniProt P42226)
- Construct: Recombinant STAT6 protein (STAT6 (W123-T658))
- Sequence (P42226 123-658): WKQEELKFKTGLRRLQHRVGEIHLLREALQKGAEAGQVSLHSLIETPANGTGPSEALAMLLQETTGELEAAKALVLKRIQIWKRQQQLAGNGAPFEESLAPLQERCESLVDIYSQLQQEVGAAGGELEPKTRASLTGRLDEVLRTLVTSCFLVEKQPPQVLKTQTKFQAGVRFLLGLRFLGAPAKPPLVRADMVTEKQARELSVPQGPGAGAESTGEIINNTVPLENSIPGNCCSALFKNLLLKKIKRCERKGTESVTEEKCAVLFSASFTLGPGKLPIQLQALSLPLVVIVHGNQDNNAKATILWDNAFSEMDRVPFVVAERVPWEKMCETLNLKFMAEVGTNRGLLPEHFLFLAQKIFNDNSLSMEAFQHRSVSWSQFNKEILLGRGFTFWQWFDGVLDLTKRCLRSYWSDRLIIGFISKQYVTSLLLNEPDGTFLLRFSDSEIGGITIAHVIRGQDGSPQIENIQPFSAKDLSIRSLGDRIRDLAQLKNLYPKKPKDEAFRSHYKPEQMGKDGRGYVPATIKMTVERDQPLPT
- experiment: STAT6 Fluorescence Polarization (FP) Assay
- Format: binding
- run.parameters: STAT6 (W123-T658) 250 nM, probe 5-FAM-Ap[…]-NH2 2 nM, 45-minute incubation; read-out: STAT6 (FP assay IC50 class)
pIC50: −log10 of the molar value.
Listing: pIC50 of selected molecules
measure.name: pIC50

NC(=O)N1C[C@H](NC(=O)[C@@H]2CC[C@@H]3CCCC[C@H](NC(=O)c4cc5cc(C(F)P(=O)(O)O)ccc5s4)C(=O)N32)[C@@H](F)C1 (some centres unmarked)
5.52 to 6.52
O=C(N[C@H]1CCC[C@H]2CC[C@@H](C(=O)N3CC(c4cnccc4N4CC[C@@H](F)C4)C3)N2C1=O)c1cc2cc(CP(=O)(O)O)ccc2s1
4.52 to 5.52
C/C1=C/[C@H]2CC[C@@H](C(=O)N3CC(c4ccccc4)CC34CC4)N2C(=O)[C@@H](NC(=O)c2ccc3ccc(CP(=O)(O)O)cc3c2)CC1 (some centres unmarked)
5.52 to 6.52
O=C(N[C@H]1CCC[C@H]2CC[C@@H](C(=O)N3CC(c4cnccc4N4CC[C@H](F)C4)C3)N2C1=O)c1cc2cc(CP(=O)(O)O)ccc2s1
4.52 to 5.52
Cn1ccc([C@@H]2CN(C(=O)[C@@H]3CC[C@@H]4CCC[C@H](NC(=O)c5cc6cc([C@@H](F)P(=O)(O)O)ccc6s5)C(=O)N43)C3(CC3)C2)cc1=O
5.52 to 6.52
